- System: MOLT-4 leukemia
- Test: NCI tumour cell line growth inhibition, 48 h
Reported property: TGI (µM)
The reply should be a number in µM, with the unit left off.

For the molecule Nc1cc(NN=C(c2ccc(O)cc2)c2ccc(O)cc2)c([N+](=O)[O-])cc1[N+](=O)[O-] , what TGI is on record?
7.69

Also need CCN(C(=O)N1CCN(c2cc3c(cc2F)c(=O)c(C(=O)O)cn3C2CC2)CC1)c1nc(-c2ccc(Cl)cc2)cs1 , thanks.
3.67

---

- Tested on: TK-10 renal
- Test: NCI tumour cell line growth inhibition, 48 h
Reported values of TGI for individual entries

A selection of reference data follows.
{"Compound": "C(=C(c1ccc(OC2CCCCO2)cc1)c1ccc(OC2CCCCO2)cc1)c1ccccc1 (stereo not given)", "TGI": "2.35 µM"}
{"Compound": "O=c1ccc2ccccc2cc1[O-].O=c1ccc2ccccc2cc1[O-].[O]=[U+2]=[O]", "TGI": "66.3 µM"}
{"Compound": "N#CC(NCc1cccc(CNC(C#N)c2ccccc2)c1)c1ccccc1 (stereo not given)", "TGI": "> 100 µM"}
{"Compound": "O=c1[nH]c(=S)[nH]c2c1C(c1ccc([N+](=O)[O-])cc1)c1c([nH]c(=S)[nH]c1=O)O2", "TGI": "> 100 µM"}

Proceed to the following item.
For the compound O=C(/C=C/c1ccccc1)C[C@@H](O)C[C@@H]1CC=CC(=O)O1 , what TGI is on record?
28.9 µM
